These entries and their values trace back to paper PMC10061536.

- Test system: α-amylase
- MEASUREMENT DESCRIPTION: α-Amylase inhibition assay
- Assay type: biochemical
- MEASUREMENT PARAMETERS: 10 μM
MEASUREMENT KIND: % age α-amylase inhibition (%)

SMILES REPRESENTATION: Fc1ccc(-c2csc(NN=Cc3ccccc3C(F)(F)F)n2)cc1
SYSTEM UNDER TEST: α-amylase
% age α-amylase inhibition [%]: 70.90

SMILES REPRESENTATION: COc1c(F)cccc1C=NNc1nc(-c2ccc(F)cc2)cs1
SYSTEM UNDER TEST: α-amylase
% age α-amylase inhibition [%]: 61.72

SMILES REPRESENTATION: CSc1ccccc1C=NNc1nc(-c2ccc(F)cc2)cs1
SYSTEM UNDER TEST: α-amylase
% age α-amylase inhibition [%]: 57.18

a: CCOc1ccccc1C=NNc1nc(-c2ccc(F)cc2)cs1
b: Oc1ccc(Cl)cc1C=NNc1nc(-c2ccc(F)cc2)cs1
[ask] Between a and b , which one has the lower reported % age α-amylase inhibition value? API: response body contains the label of the selected item.
[reply] a
(a: 54.03%, b: 82.47%)
